The origin of these recorded values is ChEMBL document CHEMBL1149757.

Recorded measurements of Ratio CC50/IC50, one per entry
Test: Selectivity index, ratio of CC50 for human MRC5 cells to IC50 for Plasmodium falciparum K1
Type: functional
Just the number, please, no unit after it.

Asked: Please report the measured Ratio CC50/IC50 for "CCN(CC)Cc1ccc(Nc2ccnc3cc(Cl)ccc23)cc1O"
Given back: 1096

Asked: Please report the measured Ratio CC50/IC50 for "CCN(CC)Cc1cccc(Nc2ccnc3cc(Cl)ccc23)c1"
Given back: 731

Asked: Please report the measured Ratio CC50/IC50 for "CCN(CC)Cc1cc(N)cc(Nc2ccnc3cc(Cl)ccc23)c1"
Given back: 774

Asked: Please report the measured Ratio CC50/IC50 for "CCN(CC)Cc1ccc(O)c(Nc2ccnc3cc(Cl)ccc23)c1"
Given back: 583

More entries:
Asked: Please report the measured Ratio CC50/IC50 for "CCN(CC)Cc1cc(NCCN2CCCCC2)cc(Nc2ccnc3cc(Cl)ccc23)c1"
Given back: 152

Asked: Please report the measured Ratio CC50/IC50 for "CCN(CC)Cc1cc(Nc2ccnc3cc(Cl)ccc23)ccc1O.Cl"
Given back: 1276
